Target: TRPM8 SV 762,763 EL (Homo sapiens, UniProt Q7Z2W7, S762E/V763L)
Construct: expressed in transfected cells
Sequence (Q7Z2W7 whole entry S762E/V763L): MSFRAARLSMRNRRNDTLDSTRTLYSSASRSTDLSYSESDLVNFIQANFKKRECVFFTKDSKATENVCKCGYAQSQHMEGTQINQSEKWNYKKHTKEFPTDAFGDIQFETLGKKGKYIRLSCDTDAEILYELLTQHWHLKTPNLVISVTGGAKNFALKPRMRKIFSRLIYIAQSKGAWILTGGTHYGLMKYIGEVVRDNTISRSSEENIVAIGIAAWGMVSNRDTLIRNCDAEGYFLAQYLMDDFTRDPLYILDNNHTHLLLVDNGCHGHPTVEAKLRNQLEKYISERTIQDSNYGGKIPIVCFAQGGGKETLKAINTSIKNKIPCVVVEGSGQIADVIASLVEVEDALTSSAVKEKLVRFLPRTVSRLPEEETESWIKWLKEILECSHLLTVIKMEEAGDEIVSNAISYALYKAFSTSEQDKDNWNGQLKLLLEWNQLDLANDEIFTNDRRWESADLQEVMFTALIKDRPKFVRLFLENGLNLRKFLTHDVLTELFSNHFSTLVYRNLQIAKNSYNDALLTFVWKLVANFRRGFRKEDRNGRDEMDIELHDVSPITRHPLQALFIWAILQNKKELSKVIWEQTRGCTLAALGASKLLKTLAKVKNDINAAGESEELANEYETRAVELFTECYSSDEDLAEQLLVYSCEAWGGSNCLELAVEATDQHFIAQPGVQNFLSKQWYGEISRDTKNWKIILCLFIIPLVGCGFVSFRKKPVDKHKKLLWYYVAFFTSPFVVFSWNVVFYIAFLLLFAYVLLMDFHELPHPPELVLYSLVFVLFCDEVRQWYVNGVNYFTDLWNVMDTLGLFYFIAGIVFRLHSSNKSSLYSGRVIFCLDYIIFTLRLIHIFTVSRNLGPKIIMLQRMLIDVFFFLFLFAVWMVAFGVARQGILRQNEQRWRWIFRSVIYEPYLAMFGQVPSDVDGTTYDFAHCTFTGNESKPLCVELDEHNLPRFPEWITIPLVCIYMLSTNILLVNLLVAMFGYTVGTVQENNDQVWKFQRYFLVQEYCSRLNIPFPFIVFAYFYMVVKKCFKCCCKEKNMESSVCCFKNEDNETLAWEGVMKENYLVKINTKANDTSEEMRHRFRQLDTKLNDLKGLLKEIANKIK
Test: Fluo-3 intracellular Ca2+ assay, HEK-293 cells expressing TRPM8 SV 762,763 EL mutant
Format: cell-based
Conditions: HEK293 TRPM8 SV / EL; mean±S.E.M., n=3; read-out: EC50 for WS 12 (peak intracellular Ca2+ fluorescence)
pEC50: −log10 of the molar value.

molecule	measurement target	pEC50
COc1ccc(NC(=O)[C@@H]2CC(C)CC[C@H]2C(C)C)cc1 (stereo partly shown)	TRPM8 SV 762,763 EL (Homo sapiens, UniProt Q7Z2W7, S762E/V763L)	6.75

----------
Molecular target: TRPA1 804N (Homo sapiens, UniProt O75762, S804N)
Construct: expressed in transfected cells
Experiment: Fluo-3 intracellular Ca2+ assay, HEK-293 cells expressing TRPA1 804N SNP variant
Format: cell-based
Settings: HEK-293 TRPA1 804N; mean ±standard deviation, n=4; read-out: EC50 cinnamaldehyde
Description: Human TRPA1 cDNA in pcDNA3.1neo [41] was mutated to create SNP variants using quick change PCR with appropriate primer pairs: R797T forward 5′ […] TT and reverse 5′ […], S804N forward 5′ […] ATGTTC and reverse 5′ […]. […] Data from the measurement of Ca^2+ transients (each treatment including a 2 μM A23187 Ca^2+ ionophore control) were used to generate fluorescence intensity traces in Microsoft Excel. […]
pEC50: −log10 of the molar value.
parameter measured: pEC50

O=C/C=C/c1ccccc1 4.96

----------
Target: human TRPM8 (Homo sapiens)
Sequence (Q7Z2W7 whole entry): as the sequence (Q7Z2W7 whole entry S762E/V763L) above, with E762S, L763V counted along it
Test: Fluo-3 intracellular Ca2+ assay, HEK-293 cells expressing normal human TRPM8
Conditions: HEK293 TRPM8; mean±S.E.M., n=3; read-out: EC50 for WS 12 (peak intracellular Ca2+ fluorescence)
pEC50: −log10 of the molar value.

compound	measurement target	pEC50
COc1ccc(NC(=O)[C@@H]2CC(C)CC[C@H]2C(C)C)cc1 (stereo partly shown)	human TRPM8 (Homo sapiens)	6.89

----------
Target: TRPM8 FK 1045,1046 AG (Homo sapiens, UniProt Q7Z2W7, F1045A/K1046G)
Construct: expressed in transfected cells
Sequence (Q7Z2W7 whole entry F1045A/K1046G): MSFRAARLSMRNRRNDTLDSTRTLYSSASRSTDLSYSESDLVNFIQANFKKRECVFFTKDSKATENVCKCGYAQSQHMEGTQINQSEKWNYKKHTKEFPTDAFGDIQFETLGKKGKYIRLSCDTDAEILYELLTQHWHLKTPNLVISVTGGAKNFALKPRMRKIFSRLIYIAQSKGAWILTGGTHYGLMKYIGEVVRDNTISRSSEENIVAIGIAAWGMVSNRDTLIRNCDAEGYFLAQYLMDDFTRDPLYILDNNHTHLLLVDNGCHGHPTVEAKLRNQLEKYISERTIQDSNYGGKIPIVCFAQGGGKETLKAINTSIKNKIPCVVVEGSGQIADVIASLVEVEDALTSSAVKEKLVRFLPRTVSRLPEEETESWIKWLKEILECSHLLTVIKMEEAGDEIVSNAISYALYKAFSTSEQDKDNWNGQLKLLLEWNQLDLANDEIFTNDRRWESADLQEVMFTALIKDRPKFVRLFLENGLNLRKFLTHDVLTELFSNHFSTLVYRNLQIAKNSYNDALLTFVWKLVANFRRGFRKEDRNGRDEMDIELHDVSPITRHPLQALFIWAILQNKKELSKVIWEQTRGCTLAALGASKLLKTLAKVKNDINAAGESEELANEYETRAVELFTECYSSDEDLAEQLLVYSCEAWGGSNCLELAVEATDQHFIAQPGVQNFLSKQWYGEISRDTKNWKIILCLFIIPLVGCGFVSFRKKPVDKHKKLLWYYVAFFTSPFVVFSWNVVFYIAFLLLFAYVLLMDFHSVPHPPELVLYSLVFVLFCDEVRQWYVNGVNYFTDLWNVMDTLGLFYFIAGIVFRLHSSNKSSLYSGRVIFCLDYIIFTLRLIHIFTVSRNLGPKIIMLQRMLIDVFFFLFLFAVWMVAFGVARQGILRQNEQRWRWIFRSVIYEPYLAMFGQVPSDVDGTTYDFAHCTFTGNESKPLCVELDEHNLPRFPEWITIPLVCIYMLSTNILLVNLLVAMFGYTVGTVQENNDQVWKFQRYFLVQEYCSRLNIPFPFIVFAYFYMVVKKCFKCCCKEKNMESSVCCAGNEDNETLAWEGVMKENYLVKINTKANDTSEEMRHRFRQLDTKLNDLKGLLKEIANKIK
Test: Fluo-3 intracellular Ca2+ assay, HEK-293 cells expressing TRPM8 FK 1045,1046 AG mutant
Type: cell-based
Details: HEK293 TRPM8 FK / AG; mean±S.E.M., n=3; read-out: EC50 for WS 12 (peak intracellular Ca2+ fluorescence)
pEC50: −log10 of the molar value.

compound	pEC50
COc1ccc(NC(=O)[C@@H]2CC(C)CC[C@H]2C(C)C)cc1 (stereo partly shown)	6.71

----------
Target: TRPA1-(His)10 (Homo sapiens, UniProt O75762)
Sequence (O75762 with tags, fused parts or gaps limits assumed): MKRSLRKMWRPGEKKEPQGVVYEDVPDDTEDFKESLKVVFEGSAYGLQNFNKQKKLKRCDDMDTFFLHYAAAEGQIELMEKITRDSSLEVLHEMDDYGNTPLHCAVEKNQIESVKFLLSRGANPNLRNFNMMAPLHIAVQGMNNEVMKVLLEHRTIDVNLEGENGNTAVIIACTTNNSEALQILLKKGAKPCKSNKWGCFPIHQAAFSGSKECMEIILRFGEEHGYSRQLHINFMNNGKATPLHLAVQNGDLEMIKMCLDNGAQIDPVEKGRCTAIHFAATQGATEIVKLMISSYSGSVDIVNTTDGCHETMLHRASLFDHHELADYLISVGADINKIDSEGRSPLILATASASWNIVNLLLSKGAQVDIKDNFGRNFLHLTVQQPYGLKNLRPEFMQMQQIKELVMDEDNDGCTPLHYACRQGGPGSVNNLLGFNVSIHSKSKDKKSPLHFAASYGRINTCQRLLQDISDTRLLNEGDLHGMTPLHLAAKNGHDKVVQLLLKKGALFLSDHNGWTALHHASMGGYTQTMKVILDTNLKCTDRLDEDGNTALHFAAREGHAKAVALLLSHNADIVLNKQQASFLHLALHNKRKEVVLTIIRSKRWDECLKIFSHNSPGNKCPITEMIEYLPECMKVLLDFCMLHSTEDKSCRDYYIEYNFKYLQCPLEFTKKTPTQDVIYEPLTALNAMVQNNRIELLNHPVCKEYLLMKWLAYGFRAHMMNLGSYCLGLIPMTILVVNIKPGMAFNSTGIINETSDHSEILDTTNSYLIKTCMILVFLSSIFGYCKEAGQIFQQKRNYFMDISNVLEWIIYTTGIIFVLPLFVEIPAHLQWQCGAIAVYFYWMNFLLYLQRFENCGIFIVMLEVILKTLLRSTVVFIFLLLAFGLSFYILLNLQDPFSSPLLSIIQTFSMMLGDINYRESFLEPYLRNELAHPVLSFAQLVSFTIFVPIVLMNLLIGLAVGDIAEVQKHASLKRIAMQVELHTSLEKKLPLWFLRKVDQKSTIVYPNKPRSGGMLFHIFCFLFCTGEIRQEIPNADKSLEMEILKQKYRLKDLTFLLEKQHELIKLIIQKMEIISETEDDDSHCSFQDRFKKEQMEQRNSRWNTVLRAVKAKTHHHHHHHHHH
Experiment: Fluo-3 intracellular Ca2+ assay, HEK-293 cells expressing TRPA1-(His)10
Conditions: HEK-293 TRPA1-(His)10; mean ±standard deviation, n=4; read-out: EC50 cinnamaldehyde

compound	EC50 / µM
O=C/C=C/c1ccccc1 [cinnamaldehyde]	8

----------
Target: TRPA1 797R (Homo sapiens, UniProt O75762)
Sequence (O75762 whole entry): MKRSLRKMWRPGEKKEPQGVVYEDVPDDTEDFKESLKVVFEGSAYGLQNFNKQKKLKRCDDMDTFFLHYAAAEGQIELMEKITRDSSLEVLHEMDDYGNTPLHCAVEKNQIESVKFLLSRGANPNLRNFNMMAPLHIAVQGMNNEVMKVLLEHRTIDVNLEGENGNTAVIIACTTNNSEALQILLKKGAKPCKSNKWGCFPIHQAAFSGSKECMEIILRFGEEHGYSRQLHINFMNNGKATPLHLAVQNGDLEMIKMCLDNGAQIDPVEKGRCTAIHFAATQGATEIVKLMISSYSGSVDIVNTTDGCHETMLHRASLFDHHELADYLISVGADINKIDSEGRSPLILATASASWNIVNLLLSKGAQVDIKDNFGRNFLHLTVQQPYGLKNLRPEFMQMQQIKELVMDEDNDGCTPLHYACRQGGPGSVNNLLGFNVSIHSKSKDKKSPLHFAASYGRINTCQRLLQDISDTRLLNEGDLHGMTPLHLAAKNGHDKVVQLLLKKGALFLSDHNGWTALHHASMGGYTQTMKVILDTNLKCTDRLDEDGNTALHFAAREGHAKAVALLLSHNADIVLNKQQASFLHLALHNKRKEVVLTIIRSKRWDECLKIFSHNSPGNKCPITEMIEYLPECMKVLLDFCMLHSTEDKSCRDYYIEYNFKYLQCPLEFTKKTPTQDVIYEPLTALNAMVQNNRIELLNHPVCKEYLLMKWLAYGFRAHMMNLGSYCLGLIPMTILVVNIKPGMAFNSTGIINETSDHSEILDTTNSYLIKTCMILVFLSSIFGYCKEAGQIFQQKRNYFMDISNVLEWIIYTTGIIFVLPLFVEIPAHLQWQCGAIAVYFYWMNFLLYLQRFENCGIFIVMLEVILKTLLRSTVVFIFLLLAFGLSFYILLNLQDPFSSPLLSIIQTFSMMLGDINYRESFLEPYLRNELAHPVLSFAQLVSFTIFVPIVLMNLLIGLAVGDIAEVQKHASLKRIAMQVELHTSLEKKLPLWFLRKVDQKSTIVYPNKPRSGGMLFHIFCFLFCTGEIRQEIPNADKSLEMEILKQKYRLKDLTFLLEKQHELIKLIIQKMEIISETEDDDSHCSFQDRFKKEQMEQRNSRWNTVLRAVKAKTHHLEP
Test: Fluo-3 intracellular Ca2+ assay, HEK-293 cells expressing TRPA1 797R (reference sequence)
pEC50: −log10 of the molar value.
parameter measured: pEC50

O=C/C=C/c1ccccc1 4.82

All figures here come from paper PMC4122973.
